The reader will find reported pKd values listed item by item below.
# SYSTEM TESTED: T1, Histidine-tagged canine PD-1 protein (canine)
# T1 sequence: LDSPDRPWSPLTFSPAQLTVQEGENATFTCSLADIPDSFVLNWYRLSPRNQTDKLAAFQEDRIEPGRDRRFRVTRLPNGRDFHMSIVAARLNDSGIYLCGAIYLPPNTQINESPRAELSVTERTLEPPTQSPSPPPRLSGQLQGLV
# METHOD DESCRIPTION: SPR (Biacore), dPD-1-His amine-coupled to CM5 chip, antibody injected, 1:1 Langmuir fit
Please report pKd as the negative decimal logarithm of the molar concentration, giving only the number.

Solved cases (2 shown):
1D8-H1K1-dIgG4 (antibody, V domains shown) VH: EVQLVESGGDLVKPVGSLRLSCVASGFTFNNFGMSWVRQAPGKGLQWVATLSSGSSYTYYSDSVKGRFTISRDNAKNTLYLQMNSLRAEDTAMYYCTRGESRFAYWGQGTLVTVSA VL: GVVITQDPLSLAVTPGELVTISCRSSKSLLYKDGKTYLNWYLQKPGQTPRLLIYLMSTRASGVSDRFSGSGSGTDFTLKISRVEAEDVGVYYCQQLIEYPLTFGAGTKVELK: 8.34
1B9-H2K1-IgG4 (antibody, V domains shown) VH: EVQLVQSGAEVKKPGASVKVSCKASGYTFTSFWMNWVRLAPGAGLEWIGRVDPYDSETHYNQKFKDRAILTVDTSTSTAYMELSSLRAGDIAVYYCATQFGFSWLAYWGQGTLVTVSA VL: EIVMTQSPGSLAGSAGESVSINCKSSQSLLYSSNQKNYLAWYQQKPGESPKLLIYWASTRESGVPDRFSGSGSGTDFTLTINNLQAEDVGVYYCQQYYSNPYTFGQGTKLEIK: 9.11

Let us examine a further case.
For the binder 1D8-mHvKv-dIgG4 (antibody, V domains shown) VH: EVQLVESGGDLVKPGGSLKLSCAASGFTFNNFGMSWVRQNPDKRLEWVATLSSGSSYTYYSDSVKGRFTISRDNAKNTLYLQMNSLKSEDTAMYYCTRGESRFAYWGQGTLVTVSA VL: GVVITQDELSNPVTSGESVSISCRSSKSLLYKDGKTYLNWFLQRPGQSPQLLIYLMSTRASGVSDRFSGSGSGTDFTLEISRVKAEDVGVYYCQQLIEYPLTFGAGTKLELKR , give its reported pKd.
10.03
